molecular target: T1, cynomolgus PD-1 (#PD1-C52H5, AcroBiosystems) (cynomolgus monkey, UniProt B0LAJ3 25-170); test: SPR, PD-1 on captured IgG1
T1 construct: bought; also called cynomolgus monkey PD-1; not shown: the vendor's tag on the recombinant protein (AcroBiosystems #PD1-C52H5)
T1 sequence (B0LAJ3 entry or part of it limits assumed, form in doubt): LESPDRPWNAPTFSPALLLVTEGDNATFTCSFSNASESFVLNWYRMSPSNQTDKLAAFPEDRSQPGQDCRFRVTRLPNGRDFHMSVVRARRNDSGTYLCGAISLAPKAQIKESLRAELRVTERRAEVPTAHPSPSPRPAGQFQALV
Each entry below carries its recorded kon.
# value in M⁻¹ s⁻¹; strip the unit string

Take a look at these entries with their results.
INSERT INTO results (binder, quantity, unit_of_measure, assay_value) VALUES
  ('KOB135 (antibody, human IgG1, V domains shown, human IgG1) VH: VQLVQSGAEVKKPGASVKVSCKASGYTFTNFYIHWVRQAPGQGLEWMGSIYPNYGITAYNQKFKDRVTMTVDTSTSTAYMELRSLRSDDTAVYYCARGYSYAMDYWGQGTTVTVSS VL: DIQMTQSPSSVSASVGDRVTITCSASQGISGDLNWYQQKPGKAPKLLIYHTSQQHSDVPSRFSGSGSGTDFTLTISSLQPEDFATYYCQGYSKDLLTFGGGTKLEIK', 'kon', 'M⁻¹ s⁻¹', 495000),
  ('RZL961 (antibody, human IgG1, V domains shown, human IgG1) VH: VQLVQSGAEVKKPGASVKVSCKASGYTFTNFYIHWVRQAPGQGLEWMGSIYPQYGITAYNQKFKDRVTMTVDTSTSTAYMELRSLRSDDTAVYYCARGYSYAMDYWGQGTTVTVSS VL: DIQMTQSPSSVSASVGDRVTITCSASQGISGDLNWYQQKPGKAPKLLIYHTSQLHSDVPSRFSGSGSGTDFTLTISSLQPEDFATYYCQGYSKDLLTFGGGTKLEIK', 'kon', 'M⁻¹ s⁻¹', 555000);

Input line: Looking for the measured kon of JPK663 (antibody, human IgG1, V domains shown, human IgG1) VH: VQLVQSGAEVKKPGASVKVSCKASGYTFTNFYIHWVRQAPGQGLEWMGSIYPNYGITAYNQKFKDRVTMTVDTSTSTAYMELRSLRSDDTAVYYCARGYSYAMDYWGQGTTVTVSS VL: DIQMTQSPSSVSASVGDRVTATCSASQGISGDLNWYQQKPGKAPKLLIYHTSQLHSDVPSRFSGSGSGTDFTLTISSLQPEDFATYYCQGYSKDLLTFGGGTKLEIK , can you help?
Output line: 504000
